Hello, the source for this data is patent US12692236B2, in case you need it.

study_system: sigma-2 receptor (Homo sapiens, UniProt Q5BJF2)
Sequence (Q5BJF2 whole entry, species assumed): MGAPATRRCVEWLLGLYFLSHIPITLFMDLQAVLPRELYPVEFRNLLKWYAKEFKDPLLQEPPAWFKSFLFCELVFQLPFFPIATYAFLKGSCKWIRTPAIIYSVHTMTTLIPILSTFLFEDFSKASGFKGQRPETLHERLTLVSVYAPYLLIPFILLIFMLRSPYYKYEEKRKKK
experiment_summary: sigma-2 receptor binding affinity (Ki)

molecule	activity against sigma-2 (in words)
CCCn1nc(C(=O)N(C)C)c2c1CCC(OCc1ccc(F)cc1)C2 (stereo not shown) [compound 200622]	completely lost
CCCn1nc(C(=O)N(C)C)c2c1CCC(SCc1ccc(F)cc1)C2 (stereo not shown) [compound 200624]	completely lost

====

Recorded Ki values for a group of compounds are listed next.
study_system: sigma-2 receptor (Homo sapiens, UniProt Q5BJF2)
experiment_summary: sigma-2 receptor binding affinity (Ki)
condition_description: read-out: Ki (nM) Sigma-2
Number only, in nM; omit the unit.

The cases that follow already have their Ki on record.
compound	study_system	value_units	Ki
CCCn1nc(C(=O)N2CCCCC2)c2c1CCC(NCCN1CCCCC1)C2 (centres unmarked)	sigma-2 receptor (Homo sapiens, UniProt Q5BJF2)	nM	434
CCCn1nc(C(=O)N2CCCCC2)c2c1CCC(N1CCN(C)CC1)C2 (centres unmarked)	sigma-2 receptor (Homo sapiens, UniProt Q5BJF2)	nM	34
CCCn1nc(C(=O)N2CCCCC2)c2c1CCC(NCc1ccc(S(N)(=O)=O)cc1)C2 (centres unmarked)	sigma-2 receptor (Homo sapiens, UniProt Q5BJF2)	nM	439

q: // lookup Ki for O=C(c1c2c(nn1-c1ccccc1)CCC(NCCc1ccncc1)C2)N1CCCCC1 (centres unmarked)
a: 296

q: What value of measured Ki is listed for CCCn1nc(C(=O)N(C)C)c2c1CCC(NCc1ccc(Cl)cc1)C2 (centres unmarked) ?
a: 1020

q: Which Ki is reported for this compound? O=C(c1nn(-c2ccccc2)c2c1CC(NCCc1ccc3c(c1)OCO3)CC2)N1CCCCC1 (centres unmarked)
a: 349
